B1: PDS5B (parent)
chain: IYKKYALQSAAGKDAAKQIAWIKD

- Variants of: B1
- ASSAY_NOTES: protein stability index of a GFP-peptide fusion (GPS, HEK-293T) (PSI 1-6); higher = more stable;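 note: lentivirally expressed fusions sorted by FACS into six bins by GFP to DsRed ratio, PSI derived from sequencing read proportions per bin multiplied by bin number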
- EXPERIMENTAL_PARAMETERS: c terminus: a fixed tail appended
# maps each entry to its protein stability index
MEASURE: protein stability index

chain=IYKKYALQSAAGKDAAKRIAWIKD observed_value=2.24
chain=IYKKYALCSAAGKDAAKQIAWIKD observed_value=1.29
chain=INKKYALQSAAGKDAAKQIAWIKD observed_value=2.98
chain=IYKKYALQSAAGKDAAKWIAWIKD observed_value=2.18
chain=IYKKYWLQSAAGKDAAKQIAWIKD observed_value=2
chain=IYKYYALQSAAGKDAAKQIAWIKD observed_value=1.84
chain=IYKKYALQMAAGKDAAKQIAWIKD observed_value=2.44
chain=IYKKYALQSAAGKDAAKQIAWGKD observed_value=2.8
chain=IYKKYALESAAGKDAAKQIAWIKD observed_value=2.67
chain=IYKKYALQSAAGKDAQKQIAWIKD observed_value=2.35
chain=IYKVYALQSAAGKDAAKQIAWIKD observed_value=1.55
